System: c-Src;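 note: 11-residue human phosphosite peptides and single-mutation variants displayed on the E. coli surface, counted by deep sequencing, each peptide's frequency after selection divided by its frequency in the unselected input library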;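 note: frequency after pTyr selection over input frequency; kinase dosed for 20-30% of maximal phosphorylation in three min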
assay notes: phosphorylation enrichment, bacterial display (enrichment ratio); higher = better substrate or ligand; peptides without Tyr show the background
Assign phosphorylation enrichment to each entry below.
Output: the number by itself.

Summary for this sequence, QEALEYFMKQT [PIK3CA_Y1038_M1043T] : phosphorylation enrichment is 1.6

Summary for this sequence, KIKLNYTLPQD [NRAP_Y523_N519I] : phosphorylation enrichment is 0.454

Summary for this sequence, ISGGGYRARPA [FGB_Y71] : phosphorylation enrichment is 0.408

Summary for this sequence, LQFKNYQQLFD [MAN2A1_Y442] : phosphorylation enrichment is 0.377

Summary for this sequence, RLSARYFQGDL [PDK3_Y337_Y334S] : phosphorylation enrichment is 0.469

Summary for this sequence, DRLASSLDKVR [KRT10_Y160_Y160S] : phosphorylation enrichment is 0.333

Summary for this sequence, NPQKSYFIRLF [WAS_Y83_YF] : phosphorylation enrichment is 0.464

Summary for this sequence, VDTPMYATMQR [TPO_Y55_A53P] : phosphorylation enrichment is 3.3

Summary for this sequence, AGRSGYDNREI [BCL2_Y9_T7S] : phosphorylation enrichment is 0.394

Summary for this sequence, LTELGYSFVTT [ACTA1_Y200_R198L] : phosphorylation enrichment is 1.11

Summary for this sequence, EEQKKYFNAMK [SCN5A_Y1494_YF] : phosphorylation enrichment is 0.479

Summary for this sequence, NFYEYYVDDPL [GCHFR_Y48_P53L] : phosphorylation enrichment is 4.67

Summary for this sequence, TEQDPSNNIVR [MMUT_Y364_Y364S] : phosphorylation enrichment is 0.492

Summary for this sequence, GDDLSYGDVPP [IRS1_Y151_E147D] : phosphorylation enrichment is 0.63

Summary for this sequence, VLALWYFFLTH [ZDHHC23_Y127_YF] : phosphorylation enrichment is 0.602

Summary for this sequence, IYKAAYFGVYD [SLC25A4_Y191_R188K] : phosphorylation enrichment is 5.18

Summary for this sequence, TSSAGYRAAEG [COL6A3_Y543] : phosphorylation enrichment is 0.316

Summary for this sequence, LFEDHYLLGTS [ASS1_Y87_R86H_YF] : phosphorylation enrichment is 1.01

Summary for this sequence, YGSGNYNDFGN [HNRNPA2B1_Y300] : phosphorylation enrichment is 0.643

Summary for this sequence, CTTIHQNFMCN [TP53_Y234_Y234Q_YF] : phosphorylation enrichment is 0.391

Summary for this sequence, FSAGTYPRLEE [SYCN_Y108] : phosphorylation enrichment is 0.392

Summary for this sequence, ILCTVYAFKMR [GRM3_Y754_T758M] : phosphorylation enrichment is 0.65

Summary for this sequence, VRFTEYETQVK [TARDBP_Y155] : phosphorylation enrichment is 0.406

Summary for this sequence, KWHREYNSKFV [RICTOR_Y835_YF] : phosphorylation enrichment is 0.334

Summary for this sequence, FGLTLYPNSRE [MEP1A_Y472_V469L] : phosphorylation enrichment is 0.394

Summary for this sequence, MFKPMYALFRT [HUWE1_Y4078_N4075K] : phosphorylation enrichment is 1.75

Summary for this sequence, IFGVSYDEYRY [CFTR_Y512] : phosphorylation enrichment is 1.27

Summary for this sequence, KVGPGYLGSRG [RET_Y826_G830R] : phosphorylation enrichment is 0.366

Summary for this sequence, ADARMYGVLLW [PLP1_Y207_P211L] : phosphorylation enrichment is 4.01

Summary for this sequence, SIKHKYVTALY [KCNH2_Y611_D609H] : phosphorylation enrichment is 0.398

Summary for this sequence, FETVKYINNER [ABCB7_Y345_F346I_YF] : phosphorylation enrichment is 0.431

Summary for this sequence, ILGRFYETSSI [PAX2_Y73_G76S_YF] : phosphorylation enrichment is 0.47

Summary for this sequence, VLALWYFFLTN [ZDHHC23_Y127_H132N_YF] : phosphorylation enrichment is 0.654

Summary for this sequence, RNGDRYFKGIV [DCX_Y64] : phosphorylation enrichment is 0.455

Summary for this sequence, ALMGPYHGQVL [HADHA_Y343_L342P] : phosphorylation enrichment is 0.46

Summary for this sequence, TFINKYQGKLF [HGD_Y249_V245F] : phosphorylation enrichment is 0.347

Summary for this sequence, LISVSYDDWDF [GRIN2A_Y281_YF] : phosphorylation enrichment is 1.07

Summary for this sequence, ARDVIYIIIPA [FRKtide_2014] : phosphorylation enrichment is 1.52

Summary for this sequence, LPKEQYLCTKE [AFG3L2_Y614_Y616C] : phosphorylation enrichment is 0.427

Summary for this sequence, HRDSSYYWEIE [RAF1_Y340_Q335H] : phosphorylation enrichment is 1.92

Summary for this sequence, PADCRYYTFPQ [GAMT_Y222_A224T] : phosphorylation enrichment is 5.45

Summary for this sequence, LQLLGHRPVFS [CHST6_Y358_Y358H_YF] : phosphorylation enrichment is 0.579

Summary for this sequence, SVSVNYGDLVQ [GRAP_Y101_Q104L] : phosphorylation enrichment is 0.419

Summary for this sequence, HCFNSYTFPRL [PAK7_Y316_S312C_YF] : phosphorylation enrichment is 0.469

Summary for this sequence, NFDRVYIFHLR [MYOF_Y1137_YF] : phosphorylation enrichment is 0.615

Summary for this sequence, PGQRVYVVAER [SHH_Y316] : phosphorylation enrichment is 0.464

Summary for this sequence, NDLMEYPKQHG [ASS1_Y163_A164P] : phosphorylation enrichment is 0.447

Summary for this sequence, LDVDVYGPSVP [NUBPL_Y109] : phosphorylation enrichment is 1.33

Summary for this sequence, IQVDAYFSPIH [ADSL_Y432] : phosphorylation enrichment is 0.484

Summary for this sequence, KVPCHYDDPGK [FOXG1_Y246_R244C] : phosphorylation enrichment is 0.443

Summary for this sequence, GRTNIYKNKKD [SLC26A3_Y520] : phosphorylation enrichment is 0.434

Summary for this sequence, IIGNGYFFRVF [MYBPC3_Y1135_YF] : phosphorylation enrichment is 0.288

Summary for this sequence, SVTCTYSPAHN [TP53_Y126_L130H] : phosphorylation enrichment is 0.802

Summary for this sequence, VEDQFYRVDCF [FHL1_Y208_C209R_YF] : phosphorylation enrichment is 1.1

Summary for this sequence, ANFTEYVATSW [CDKL5_Y171_R175S_YF] : phosphorylation enrichment is 0.578

Summary for this sequence, LRSELYFLIAR [PHIP_Y16] : phosphorylation enrichment is 1.5

Summary for this sequence, MYDKEYYSVHN [MET_Y1234] : phosphorylation enrichment is 1.65

====

assayed target: Grb2 SH2 (UniProt P62993)
Sequence (P62993 whole entry, looked up): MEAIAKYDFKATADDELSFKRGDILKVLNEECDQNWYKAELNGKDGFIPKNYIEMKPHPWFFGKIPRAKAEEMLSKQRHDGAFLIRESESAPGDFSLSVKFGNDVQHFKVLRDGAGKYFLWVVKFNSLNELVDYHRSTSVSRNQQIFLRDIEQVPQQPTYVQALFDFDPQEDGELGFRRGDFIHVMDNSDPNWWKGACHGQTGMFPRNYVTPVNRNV
assay notes: SH2 binding enrichment of the phosphorylated peptide, bacterial display (enrichment ratio); higher = better substrate or ligand; peptides without Tyr show the background
recorded metric: SH2 binding enrichment
Output: the number by itself.

Summary for this sequence, PGQRVYVVAER [SHH_Y316] : SH2 binding enrichment is 0.879

Summary for this sequence, SSFSGYIMMPN [LEF1_Y114_YF] : SH2 binding enrichment is 0.999

Summary for this sequence, YNNYGYGSDGF [HNRNPH3_Y161_N163S] : SH2 binding enrichment is 1.49

Summary for this sequence, MFKPMYALFRT [HUWE1_Y4078_N4075K] : SH2 binding enrichment is 1.35

Summary for this sequence, LNEVGYDDIGG [VCP_Y203] : SH2 binding enrichment is 0.974

Summary for this sequence, ARQEEYSAMRD [KRAS_Y64_G60R] : SH2 binding enrichment is 0.824

Summary for this sequence, RHNEIYEIKVD [LGR5_Y387] : SH2 binding enrichment is 1.09

Summary for this sequence, SGRSGYCLGTR [SCO1_Y60_P58S] : SH2 binding enrichment is 1.19

Summary for this sequence, FNDSAYNQQLI [ZPLD1_Y198_T197A_YF] : SH2 binding enrichment is 0.705

Summary for this sequence, AGQKDYDRLRP [RAC3_Y64_E62K] : SH2 binding enrichment is 0.953

Summary for this sequence, LRVHSYKSMQP [DRC7_Y516] : SH2 binding enrichment is 1.25

Summary for this sequence, KHCEDYVFSFN [DSC1_Y846_C848F_YF] : SH2 binding enrichment is 0.941

Summary for this sequence, IDSTPYRQWYE [RPS8_Y109] : SH2 binding enrichment is 0.731

Summary for this sequence, ADARMCGVLPW [PLP1_Y207_Y207C] : SH2 binding enrichment is 0.751

Summary for this sequence, SNYRAYATEPQ [TNNI3_Y29_H34Q] : SH2 binding enrichment is 0.75

Summary for this sequence, IFRASYFRKGG [ALK_Y1282_YF] : SH2 binding enrichment is 0.589

Summary for this sequence, MKVPVYETPAG [PGM5_Y358] : SH2 binding enrichment is 0.851

Summary for this sequence, PVGVLYKVKVF [PTS_Y128_YF] : SH2 binding enrichment is 0.706

Summary for this sequence, FAKTQYPDIYA [CRX_Y63_V66I] : SH2 binding enrichment is 0.881

Summary for this sequence, EKLQQYIAPGM [EPHB3_Y600] : SH2 binding enrichment is 0.696

Summary for this sequence, ELANYYKLHHI [AK7_Y391] : SH2 binding enrichment is 0.705

Summary for this sequence, CEDGTYSPEIS [PTDSS1_Y424] : SH2 binding enrichment is 0.835

Summary for this sequence, MNKNAYHNVTA [ST3GAL6_Y306] : SH2 binding enrichment is 3.88

Summary for this sequence, YLEKYYKFGSR [NNMT_Y25] : SH2 binding enrichment is 0.9

Summary for this sequence, ETDTRYFDEEF [AKT1_Y437] : SH2 binding enrichment is 0.902

Summary for this sequence, IQVDAYFSPIH [ADSL_Y432] : SH2 binding enrichment is 0.797

Summary for this sequence, FDCGMYSHLQG [LGR4_Y848_YF] : SH2 binding enrichment is 0.727

Summary for this sequence, GDDLSYGDVPP [IRS1_Y151_E147D] : SH2 binding enrichment is 0.752

Summary for this sequence, DPLLTYRFPPK [LMNA_Y481] : SH2 binding enrichment is 0.921

Summary for this sequence, RDWSLYFKIIE [KRT18_Y129_H128L] : SH2 binding enrichment is 0.567
